Target: T1, DLG3_2, Q92796
T1 sequence (Q92796 221-321, limits assumed, looked up): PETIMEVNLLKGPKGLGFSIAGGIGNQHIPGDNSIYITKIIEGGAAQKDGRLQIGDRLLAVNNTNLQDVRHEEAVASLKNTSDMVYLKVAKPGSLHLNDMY
Experiment: holdup assay
Set-up: key: below the threshold = too weak to quantify, mostly under pKd 3.1 to 4
Details: plain residues with an end cap or a label only (N-terminal biotin on a linker: ado-ado)
attribute measured: pKd

{"binder": "LPAHHNATRL [SLC34A1, Q06495;Q06495-1]", "val": "below the threshold"}
{"binder": "VRNLPESEEL [MYOZ3, Q8TDC0]", "val": "below the threshold"}
{"binder": "AKPSRISTVV [IQSEC2, Q5JU85]", "val": 5.33}
{"binder": "DDPSTAETVL [ABCA7, Q8IZY2]", "val": 4.37}

Identify measured pKd corresponding to DDEDRLVIEI [ZNF831, Q5JPB2] 4

Identify measured pKd corresponding to PRAEAEDSFL [PDGFRB, P09619] below the threshold

Identify measured pKd corresponding to VYPNAKVELV [PDLIM4_iso2, P50479;P50479-1] below the threshold

Identify measured pKd corresponding to TASPAKETSF [SLC2A7, Q6PXP3] 4.25

Identify measured pKd corresponding to IPLDGETEEL [MYOZ1, Q9NP98] below the threshold

Identify measured pKd corresponding to TSQESEDTYL [TBC1D10A, Q9BXI6] 3.61
